Recorded values, source PubChem BioAssay AID720540.

Target: Protein phosphatase EYA2 (Homo sapiens)
Assay: qHTS for Inhibitors of the Phosphatase Activity of Eya2: Confirmatory Assay for Cherry-picked Compounds; note: nearly all actives have a fitted effect of over 65% in size
Details: purified EYA2 phosphatase activity, qHTS confirmation; series mostly up to 46.1 µM
About 460 (35%) of roughly 1,300 compounds were called active. About 39% were inconclusive and are not listed. Calls come from the whole dose curve; as a rule, active = well fitted inhibition curve with a large enough effect; inconclusive = small, poorly fitted or top-dose-only effect; inactive = flat fitted curve, though single readings scatter. Some of the results follow.
Thanks in advance; please answer with one of these: 1 (yes) (active), 0 (no) (inactive)

compound	category
Cc1ccc(-c2csc(NC(=O)c3ccccc3F)c2C(=O)O)cc1	1 (yes)
Cc1ccc(Nc2c(-c3ccccn3)nc3ccc(C)cn23)cc1	1 (yes)
O=C(c1cccs1)N1CCC(c2nc3c(nnn3Cc3cccc(Cl)c3)c(=O)[nH]2)CC1	1 (yes)
O=C1C(=O)C(c2ccc(O)cc2O)Oc2cc(O)cc(O)c21 (stereo not given)	1 (yes)
CN(C)c1ccc(/C=C2\C=Cc3cc(N)ccc32)cc1	1 (yes)
CN(C)CCNc1ccc2nnn3c4ccc(O)cc4c(=O)c1c23	1 (yes)
CCOC(=O)c1ccc(NC(=S)N2CCN(CCN=CC3=C(O)CC(c4ccccc4)CC3=O)CC2)cc1 (stereo not given)	0 (no)
CCOc1cc(C(=O)NC(C)CCc2ccccc2)cc(OCC)c1OCC (stereo not given)	0 (no)

Would you mind telling me which call this test gave `CCOC(=O)c1ncccc1NC(=O)CC(=O)Nc1cccnc1C(=O)OCC` ?
1 (yes)

---

Target: Protein phosphatase EYA2 (Homo sapiens) (UniProt O00167)
Sequence (O00167 whole entry, looked up): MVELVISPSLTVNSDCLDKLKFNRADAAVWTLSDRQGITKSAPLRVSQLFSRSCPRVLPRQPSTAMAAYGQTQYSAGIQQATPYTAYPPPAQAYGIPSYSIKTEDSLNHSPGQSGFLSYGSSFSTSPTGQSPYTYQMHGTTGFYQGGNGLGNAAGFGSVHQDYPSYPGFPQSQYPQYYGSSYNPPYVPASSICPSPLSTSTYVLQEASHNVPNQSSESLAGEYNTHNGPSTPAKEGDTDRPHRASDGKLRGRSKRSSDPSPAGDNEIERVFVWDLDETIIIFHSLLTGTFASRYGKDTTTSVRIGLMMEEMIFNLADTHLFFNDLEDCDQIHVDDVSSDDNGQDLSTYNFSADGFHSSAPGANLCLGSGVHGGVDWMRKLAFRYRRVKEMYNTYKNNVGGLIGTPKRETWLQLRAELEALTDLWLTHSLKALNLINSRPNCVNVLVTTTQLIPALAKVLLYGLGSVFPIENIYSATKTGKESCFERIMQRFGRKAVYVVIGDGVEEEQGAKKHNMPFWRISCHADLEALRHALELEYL
Assay: qHTS for Inhibitors of the Phosphatase Activity of Eya2: Confirmatory Assay for Cherry-picked Compounds; note: nearly all actives have a fitted effect of over 65% in size
Details: purified EYA2 phosphatase activity, qHTS confirmation; series mostly up to 46.1 µM
Excerpt: The Eya protein family is an essential co-activator of the Six1 transcription factor. Six1 is a developmental gene that is abnormally re-expressed in a large percentage of breast cancers. […] A 1536 well format, fluorescence based qHTS assay was developed and used to target the phosphatase activity of Eya2 (AID 488837). […] This assay assessed the activity of the primary screen cherry-picked compounds against Eya2. […]
In all, about 1,300 compounds went through this assay and about 460 (35%) were called active. Inconclusive results (about 39%) are left out. Calls come from the whole dose curve; as a rule, active = well fitted inhibition curve with a large enough effect; inconclusive = small, poorly fitted or top-dose-only effect; inactive = flat fitted curve, though single readings scatter. Some of the results follow.
Thanks in advance; please answer with one of these: 1.0 = active, 0.0 = inactive

>>> df
                                   compound  category
0  Cc1c(CC(=O)N[C@@H](C)C(=O)O)c(=O)oc2cc3occ(-c4ccccc4)c3cc12       1.0
1  O=C(C1=C(O)C(=O)N(c2nc3ccc(Cl)cc3s2)C1c1ccco1)c1ccco1 (stereo not given)       1.0
2  C[C@@H](NC(=O)c1nc[nH]c1C(=O)N[C@@H](Cc1ccccc1)C(=O)OC(C)(C)C)c1ccccc1       0.0

Would you mind telling me which call this test gave `Cc1c(CC(=O)NCC(=O)O)c(=O)oc2cc3occ(-c4ccccc4)c3cc12` ?
1.0

Would you mind telling me which call this test gave `O=C(Nc1ccc(F)cc1)c1nc[nH]c1C(=O)O` ?
1.0

Would you mind telling me which call this test gave `COc1ccccc1-c1noc2c1C(=O)N(Cc1cn(-c3ccc(Cl)cc3)nn1)CC2` ?
0.0

Would you mind telling me which call this test gave `Cc1ccc(NC(=O)c2[nH]cnc2C(=O)NN)cc1` ?
1.0

Would you mind telling me which call this test gave O=C(O)C(Cc1ccccc1)N1C(=O)/C(=C/C=C/c2ccco2)SC1=S (stereo not given) ?
1.0
